testSystem: BRD4 (BDI_K57-E168) (Homo sapiens)
Construct: BD1: amino acids K57-E168
experimentSummary: TR-FRET bromodomain binding assay, first bromodomain of BRD4
testContext: His-tagged BD1, 100 nM Alexa647 probe; TR-FRET protocol A-E given per row
readoutKind: Ki (µM)
Provide the reading as a plain figure in µM.

Enquiry: Item Cn1cc(-c2cc(NC(=O)Cc3ccc4c(c3)CCCO4)ccc2Oc2ccc(F)cc2F)c2cc[nH]c(=O)c21 has what recorded Ki?
Return: 0.146

Enquiry: Same read-out for CCS(=O)(=O)c1ccc(Oc2cccc(Cl)c2Cl)c(-c2cn(C)c3c(=O)[nH]ccc23)c1 ?
Return: 0.055

----------
# key: entry, value: pEC50
Tested on: breast cancer cell line MX-1
experimentSummary: MX-1 cell line proliferation assay
Type: cell-based
testContext: Homo sapiens, MX1, 72 h, MX-1 cells, 3-day proliferation assay, Cell Titer Glo; read-out: Cellular proliferation EC50
Protocol: The impact of compounds of the Examples on cancer cell proliferation was determined using the breast cancer cell line MX-1 (ATCC) in a 3-day proliferation assay and the data are reported in Table 1. […] Luminescence readings from the Cell Titer Glo assay were normalized to the DMSO treated cells and analyzed using the GraphPad Prism software with sigmoidal curve fitting to obtain EC50s. […]
Units for pEC50: none; it is -log10 of a concentration expressed in mol/L.

Enquiry: Item CCS(=O)(=O)Nc1ccc(Oc2ccc(F)cc2F)c(-c2cn(C)c3c(=O)[nH]c(C(=O)NCCN4CCN(C)CC4)cc23)c1 has what recorded pEC50?
Return: 7.17

Enquiry: Same read-out for Cn1cc(-c2cc(S(C)(=O)=O)ccc2Oc2ccc(F)cc2F)c2cc[nH]c(=O)c21 ?
Return: 6.97

Enquiry: Same read-out for Cn1cc(-c2cc(NCc3cn4c(n3)CCC4)ccc2Oc2ccc(F)cc2F)c2cc[nH]c(=O)c21 ?
Return: 6.54

Enquiry: Same read-out for Cn1cc(-c2cc(S(=O)(=O)N3CCc4ccccc43)ccc2OCC2CC2)c2cc[nH]c(=O)c21 ?
Return: 6.40

Enquiry: Same read-out for Cc1nn(-c2ccccc2)c(Cl)c1CNc1ccc(Oc2ccc(F)cc2F)c(-c2cn(C)c3c(=O)[nH]ccc23)c1 ?
Return: 6.70

Others:
Enquiry: Item Cc1cnc(C(=O)Nc2ccc(Oc3ccc(F)cc3F)c(-c3cn(C)c4c(=O)[nH]ccc34)c2)cn1 has what recorded pEC50?
Return: 6.70

Enquiry: Same read-out for CCS(=O)(=O)Nc1ccc(OC2COC2)c(-c2cn(C)c3c(=O)[nH]ccc23)c1 ?
Return: 6.65

Enquiry: Same read-out for Cn1cc(-c2cc(S(C)(=O)=O)ccc2OCC2CC2(F)F)c2cc[nH]c(=O)c21 (centres unmarked) ?
Return: 6.66

Enquiry: Same read-out for Cn1cc(-c2cc(S(C)(=O)=O)ccc2OCC2CC2)c2cc[nH]c(=O)c21 ?
Return: 6.74

----------
testSystem: BRD4 (BDI_K57-E168) (Homo sapiens)
Construct: BD1: amino acids K57-E168
experimentSummary: TR-FRET bromodomain binding assay, first bromodomain of BRD4
testContext: His-tagged BD1, 100 nM Alexa647 probe; TR-FRET protocol A-E given per row
readoutKind: pKi
Units for pKi: none; it is -log10 of a concentration expressed in mol/L.

Use these answered entries as a reference point.
Enquiry: Item Cn1cc(-c2cc(NC(=O)Cc3noc4ccccc34)ccc2Oc2ccc(F)cc2F)c2cc[nH]c(=O)c21 [Example 158] has what recorded pKi?
Return: 7.12

Enquiry: Same read-out for CCS(=O)(=O)Nc1ccc(Oc2ccc(F)cc2F)c(-c2cn(C)c3c(=O)[nH]c(C4CCNCC4)cc23)c1 [Example 183] ?
Return: 8.58

Enquiry: Same read-out for Cn1cc(-c2cc(NS(C)(=O)=O)c(Oc3ccc(F)cc3F)cc2F)c2cc[nH]c(=O)c21 [Example 12] ?
Return: 6.16

Others:
Enquiry: Item COc1ccc(S(C)(=O)=O)cc1-c1cn(C)c2c(=O)[nH]ccc12 [Example 21] has what recorded pKi?
Return: 6.36

----------
testSystem: BRD4 (BDI_K57-E168) (Homo sapiens)
Construct: BD1: amino acids K57-E168
experimentSummary: TR-FRET bromodomain binding assay, first bromodomain of BRD4
testContext: His-tagged BD1, 100 nM Alexa647 probe; TR-FRET protocol A-E given per row
readoutKind: pKi
Units for pKi: none; it is -log10 of a concentration expressed in mol/L.

Enquiry: Item Cc1nn(-c2ccccc2)c(Cl)c1CNc1ccc(Oc2ccc(F)cc2F)c(-c2cn(C)c3c(=O)[nH]ccc23)c1 [Example 171] has what recorded pKi?
Return: 6.75

Enquiry: Same read-out for CCS(=O)(=O)Nc1cnc(Oc2ccc(F)cc2F)c(-c2cn(C)c3c(=O)[nH]ccc23)c1 [Example 184] ?
Return: 8.27

Enquiry: Same read-out for Cn1cc(-c2cc(S(C)(=O)=O)ccc2OC2Cc3ccccc3C2)c2cc[nH]c(=O)c21 [Example 38] ?
Return: 7.05

Others:
Enquiry: Item Cn1cc(-c2cc(CS(C)(=O)=O)ccc2Nc2ccccn2)c2cc[nH]c(=O)c21 [Example 203] has what recorded pKi?
Return: 7.86

Enquiry: Same read-out for Cn1cc(-c2cc(S(C)(=O)=O)ccc2OC2CCC(F)(F)CC2)c2cc[nH]c(=O)c21 [Example 25] ?
Return: 7.85

Enquiry: Same read-out for Cn1cc(-c2cc(S(C)(=O)=O)ccc2OCC2COC2)c2cc[nH]c(=O)c21 [Example 30] ?
Return: 7.35

Enquiry: Same read-out for Cc1noc(C)c1-c1cc2c(-c3cc(CS(C)(=O)=O)ccc3Oc3ccc(F)cc3F)cn(C)c2c(=O)[nH]1 [Example 94] ?
Return: 6.77

Enquiry: Same read-out for Cn1cc(-c2cc(N)ccc2Oc2ccc(F)cc2F)c2cc[nH]c(=O)c21 [Example 146] ?
Return: 7.60

Enquiry: Same read-out for Cc1c[nH]c(=O)c2c1c(-c1cc(S(C)(=O)=O)ccc1Oc1ccc(F)cc1F)cn2C [Example 123] ?
Return: 6.89

Enquiry: Same read-out for CCS(=O)(=O)Nc1ccc(Oc2ccc(F)cc2F)c(-c2cn(C)c3c(=O)[nH]c(C(=O)NCCCO)cc23)c1 [Example 190] ?
Return: 8.70

Enquiry: Same read-out for Cn1cc(-c2cc(S(C)(=O)=O)ccc2NCC(F)(F)C(F)(F)C(F)(F)F)c2cc[nH]c(=O)c21 [Example 70] ?
Return: 6.21

Enquiry: Same read-out for CCS(=O)(=O)Nc1ccc(O[C@H]2CC[C@@H](OC)CC2)c(-c2cn(C)c3c(=O)[nH]ccc23)c1 [Example 9] ?
Return: 7.92

Enquiry: Same read-out for CCS(=O)(=O)Nc1ccc(Oc2ccc(F)cc2F)c(-c2cn(C)c3c(=O)[nH]c(C(=O)N4CCCC4)cc23)c1 [Example 193] ?
Return: 8.37

Enquiry: Same read-out for CCS(=O)(=O)c1ccc(Oc2c(C)nn(C)c2C)c(-c2cn(C)c3c(=O)[nH]ccc23)c1 [Example 90] ?
Return: 7.27

Enquiry: Same read-out for Cn1cc(-c2cc(NCc3cn4c(n3)CCC4)ccc2Oc2ccc(F)cc2F)c2cc[nH]c(=O)c21 [Example 176] ?
Return: 7.37

----------
Tested on: breast cancer cell line MX-1
experimentSummary: MX-1 cell line proliferation assay
Type: cell-based
testContext: Homo sapiens, MX1, 72 h, MX-1 cells, 3-day proliferation assay, Cell Titer Glo; read-out: Cellular proliferation EC50
# key: entry, value: pEC50
Units for pEC50: none; it is -log10 of a concentration expressed in mol/L.

Enquiry: Reported pEC50 for breast cancer cell line MX-1, given Cn1cc(-c2cc(S(C)(=O)=O)ccc2OCC2CCC2)c2cc[nH]c(=O)c21 ?
Return: 6.89

Others:
Enquiry: Reported pEC50 for breast cancer cell line MX-1, given CCS(=O)(=O)NCc1ccc(Oc2ccc(F)cc2F)c(-c2cn(C)c3c(=O)[nH]ccc23)c1 ?
Return: 6.47

Enquiry: Same read-out for Cn1cc(-c2cc(S(C)(=O)=O)ccc2OCCC(C)(C)C)c2cc[nH]c(=O)c21 ?
Return: 7.06

Enquiry: Same read-out for Cn1cc(-c2cc(CS(C)(=O)=O)ccc2Oc2ccc(F)cc2F)c2cc(Cl)[nH]c(=O)c21 ?
Return: 8.10

Enquiry: Same read-out for CCS(=O)(=O)Nc1ccc(Oc2ccc(F)cc2F)c(-c2cn(C)c3c(=O)[nH]c(C(=O)NCC4CCCC4)cc23)c1 ?
Return: 6.79

Enquiry: Same read-out for CN(C)C1CCN(Cc2ccc(Oc3ccc(F)cc3F)c(-c3cn(C)c4c(=O)[nH]ccc34)c2)CC1 ?
Return: 5.79

Enquiry: Same read-out for CCS(=O)(=O)c1ccc(Oc2ccc(C)cc2Cl)c(-c2cn(C)c3c(=O)[nH]ccc23)c1 ?
Return: 6.71

Enquiry: Same read-out for CCS(=O)(=O)Nc1ccc(Oc2ccc(F)cc2F)c(-c2cn(C)c3c(=O)[nH]c(C(=O)NCC#N)cc23)c1 ?
Return: 7.11
